System: HT-29
test_protocol: cells
condition_details: Homo sapiens, HT-29, 96 h
Description: Cytotoxicity against human HT-29 cells after 96 hrs by SRB assay
pEC50: −log10 of the molar value.
Rule: true for pEC50 not less than 5, false for anything less.

See these solved cases before continuing.
>>> cat("CCC(=O)O/N=C(\\C)[C@@H]1CC[C@]2(C(=O)OC)CC[C@]3(C)[C@H](CC[C@@H]4[C@@]5(C)CC[C@H](OC(C)=O)C(C)(C)[C@@H]5CC[C@]43C)[C@@H]12")
"false"
>>> cat("CC(=O)[C@@H]1CC[C@]2(C(=O)OCc3ccccc3)CC[C@]3(C)[C@H](CC[C@@H]4[C@@]5(C)CCC(=O)C(C)(C)[C@@H]5CC[C@]43C)[C@@H]12")
"false"
>>> cat("COC(=O)[C@]12CC[C@@H](C(C)=O)[C@@H]1[C@H]1CC[C@@H]3[C@@]4(C)CC[C@H](O)C(C)(C)[C@@H]4CC[C@@]3(C)[C@]1(C)CC2")
"false"
>>> cat("CC(=O)[C@@H]1CC[C@]2(C(=O)O)CC[C@]3(C)[C@H](CC[C@@H]4[C@@]5(C)CC[C@H](O)C(C)(C)[C@@H]5CC[C@]43C)[C@@H]12")
"false"
>>> cat("CNC(=O)[C@@H]1CC[C@]2(C(=O)OC)CC[C@]3(C)[C@H](CC[C@@H]4[C@@]5(C)CC[C@H](O)C(C)(C)[C@@H]5CC[C@]43C)[C@@H]12")
"false"

Input line: # check: pEC50 of CC(=O)O[C@H]1CC[C@]2(C)[C@H]3CC[C@@H]4[C@H]5[C@H](C(C)=O)CC[C@]5(C(=O)NCCN5CCCC5)CC[C@@]4(C)[C@]3(C)CC[C@H]2C1(C)C is greater than or equal to 5
Output line: true

Input line: # check: pEC50 of CNC(=O)[C@@H]1CC[C@]2(C(=O)OC)CC[C@]3(C)[C@H](CC[C@@H]4[C@@]5(C)CC[C@H](OC(C)=O)C(C)(C)[C@@H]5CC[C@]43C)[C@@H]12 is greater than or equal to 5
Output line: false

Input line: # check: pEC50 of C[C@@H](N)[C@@H]1CC[C@]2(C(=O)OCc3ccccc3)CC[C@]3(C)[C@H](CC[C@@H]4[C@@]5(C)CC[C@H](O)C(C)(C)[C@@H]5CC[C@]43C)[C@@H]12 is greater than or equal to 5
Output line: true

Input line: # check: pEC50 of CC(=O)O[C@H]1CC[C@]2(C)[C@H]3CC[C@@H]4[C@H]5[C@H](C(C)=O)CC[C@]5(N=C=O)CC[C@@]4(C)[C@]3(C)CC[C@H]2C1(C)C is greater than or equal to 5
Output line: false

Input line: # check: pEC50 of CC(=O)O[C@H]1CC[C@]2(C)[C@H]3CC[C@@H]4[C@H]5[C@H]([C@@H](C)N)CC[C@]5(C(=O)OCc5ccccc5)CC[C@@]4(C)[C@]3(C)CC[C@H]2C1(C)C is greater than or equal to 5
Output line: true

Input line: # check: pEC50 of CC(=O)O[C@H]1CC[C@]2(C)[C@H]3CC[C@@H]4[C@H]5[C@H]([C@@H](C)N)CC[C@]5(C(=O)O)CC[C@@]4(C)[C@]3(C)CC[C@H]2C1(C)C is greater than or equal to 5
Output line: false

Input line: # check: pEC50 of COC(=O)[C@]12CC[C@@H]([C@H](C)N)[C@@H]1[C@H]1CC[C@@H]3[C@@]4(C)CC[C@H](OC(C)=O)C(C)(C)[C@@H]4CC[C@@]3(C)[C@]1(C)CC2 is greater than or equal to 5
Output line: true

Input line: # check: pEC50 of CC(=O)O[C@H]1CC[C@]2(C)[C@H]3CC[C@@H]4[C@H]5[C@H]([C@H](C)N)CC[C@]5(C(=O)OCc5ccccc5)CC[C@@]4(C)[C@]3(C)CC[C@H]2C1(C)C is greater than or equal to 5
Output line: true

Input line: # check: pEC50 of COC(=O)[C@]12CC[C@@H]([C@H](C)NC(C)=O)[C@@H]1[C@H]1CC[C@@H]3[C@@]4(C)CC[C@H](OC(C)=O)C(C)(C)[C@@H]4CC[C@@]3(C)[C@]1(C)CC2 is greater than or equal to 5
Output line: false

Input line: # check: pEC50 of CC(=O)O[C@H]1CC[C@]2(C)[C@H]3CC[C@@H]4[C@H]5[C@H](C(C)=O)CC[C@]5(C(=O)OCc5ccccc5)CC[C@@]4(C)[C@]3(C)CC[C@H]2C1(C)C is greater than or equal to 5
Output line: false

Input line: # check: pEC50 of CC(=O)O[C@H]1CC[C@]2(C)[C@H]3CC[C@@H]4[C@H]5[C@H](C(C)=O)CC[C@]5(C(=O)NCCN)CC[C@@]4(C)[C@]3(C)CC[C@H]2C1(C)C is greater than or equal to 5
Output line: true

Input line: # check: pEC50 of CC(=O)OC[C@]12CC[C@@H]([C@@H](C)N)[C@@H]1[C@H]1CC[C@@H]3[C@@]4(C)CC[C@H](OC(C)=O)C(C)(C)[C@@H]4CC[C@@]3(C)[C@]1(C)CC2 is greater than or equal to 5
Output line: true

Input line: # check: pEC50 of COC(=O)[C@]12CC[C@@H]([C@@H](C)NC(C)=O)[C@@H]1[C@H]1CC[C@@H]3[C@@]4(C)CC[C@H](OC(C)=O)C(C)(C)[C@@H]4CC[C@@]3(C)[C@]1(C)CC2 is greater than or equal to 5
Output line: false

Input line: # check: pEC50 of CC(=O)O[C@H]1CC[C@]2(C)[C@H]3CC[C@@H]4[C@H]5[C@H](/C(C)=N\O)CC[C@]5(C(=O)OCc5ccccc5)CC[C@@]4(C)[C@]3(C)CC[C@H]2C1(C)C is greater than or equal to 5
Output line: false
